- Assayed system: T1, Human CD3eg linker (human)
- T1 construct: Single chain: epsilon and gamma subunits of human CD3 joined by a 29-mer linker, Flag-tag at the C-terminus; also called recombinant human CD3
- T1 chain: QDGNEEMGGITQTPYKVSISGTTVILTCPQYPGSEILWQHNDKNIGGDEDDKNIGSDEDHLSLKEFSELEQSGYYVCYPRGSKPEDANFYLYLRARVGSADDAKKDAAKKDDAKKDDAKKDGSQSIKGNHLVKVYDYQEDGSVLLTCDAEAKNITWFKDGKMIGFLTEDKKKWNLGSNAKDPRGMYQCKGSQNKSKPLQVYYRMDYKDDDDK
- Experiment description: Biacore SPR, vs template H183/L072
Assay metric: fold change of affinity (fold)

1. H183/L072 VH A60Q (antibody, name in Kabat numbering, V domains shown) VH: QVQLVESGGGLVQPGRSLRLSCAASGFTFSNAWMHWVRQAPGKGLEWVAQIKDKGNAYAAYYQPSVKGRFTISRDDSKNSIYLQMNSLKTEDTAVYYCHYVHYASASTVLPAFGVDAWGQGTTVTVSS VL: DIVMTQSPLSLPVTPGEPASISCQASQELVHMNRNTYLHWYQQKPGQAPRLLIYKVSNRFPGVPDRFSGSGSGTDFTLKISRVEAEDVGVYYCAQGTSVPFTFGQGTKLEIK | 1.1
2. H183/L072 VH Y55F (antibody, name in Kabat numbering, V domains shown) VH: QVQLVESGGGLVQPGRSLRLSCAASGFTFSNAWMHWVRQAPGKGLEWVAQIKDKGNAFAAYYAPSVKGRFTISRDDSKNSIYLQMNSLKTEDTAVYYCHYVHYASASTVLPAFGVDAWGQGTTVTVSS VL: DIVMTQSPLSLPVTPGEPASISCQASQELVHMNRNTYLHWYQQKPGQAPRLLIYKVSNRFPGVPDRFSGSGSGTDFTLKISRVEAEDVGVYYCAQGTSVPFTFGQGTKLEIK | 0.8
3. H183/L072 VH S30I (antibody, name in Kabat numbering, V domains shown) VH: QVQLVESGGGLVQPGRSLRLSCAASGFTFINAWMHWVRQAPGKGLEWVAQIKDKGNAYAAYYAPSVKGRFTISRDDSKNSIYLQMNSLKTEDTAVYYCHYVHYASASTVLPAFGVDAWGQGTTVTVSS VL: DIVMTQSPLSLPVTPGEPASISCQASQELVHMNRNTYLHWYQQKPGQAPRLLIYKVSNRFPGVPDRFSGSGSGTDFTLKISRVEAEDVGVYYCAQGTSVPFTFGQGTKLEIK | 0.8
